Target: CMKLR1 (Homo sapiens, UniProt Q99788)
Construct: host or cells: CHO-K1 (PathHunter)
Experiment: β-arrestin recruitment assay (chemerin-mediated β-arrestin2 association with CMKLR1)
Type: cell-based
Conditions: Table 2, tertiary amines; chemerin 20 nM; CHO transfectants; read-out: β-arrestin IC50 μM mean ± SEM (n)
endpoint: IC50 (µM)

Example results:
// fetch IC50 given entry CN(C)CCC(=O)c1cccc2ccccc12
18.8

// fetch IC50 given entry COc1cccc(OC)c1C(=O)CCN(C)C
10.3

1: CCN(CC)CCC(=O)c1ccc2ccccc2c1
2: CCN(CC)CCC(=O)c1cccc2ccccc12
Two entries are listed, 1 and 2 . Which one carries the higher IC50? Indicate which entry you chose by stating its label.
1

I: CCN(CC)CCC(=O)c1ccccc1
II: CCN(C)CCC(=O)c1ccccc1
I'm curious, which of these has a smaller IC50 number: I or II ? Indicate which entry you chose by stating its label.
II

1: CCN(C)CCC(=O)c1cccc2ccccc12
2: CCCCN(C)CCC(=O)c1ccc2ccccc2c1
3: COc1cccc(C(=O)CCN(C)C)c1
4: COc1ccc2ccccc2c1C(=O)CCN(C)C
Order the records, beginning with the lowest IC50 and ending with the highest. # output: labels, in the requested order
4, 1, 2, 3
(4: 6.2 µM, 1: 17.9 µM, 2: 44.5 µM, 3: 64 µM)

A: CCN(C)CCC(=O)c1ccc2ccccc2c1
B: CN(C)CCC(=O)c1ccc2ccccc2c1
I'm curious, which of these has a smaller IC50 number: A or B ? Indicate which entry you chose by stating its label.
B
(B: 18.5 µM, A: 39.6 µM)

----------
Molecular target: (hu)CMKLR1 L1.2 cells (Homo sapiens)
Construct: expressed in transfected cells; host or cells: L1.2 pre-B cell lymphoma cells
Assay: Chemotaxis assay (chemerin-dependent CMKLR1+ cell migration)
Format: cell-based
Details: Table 3; migration toward huChemerin, 2 h transwell; read-out: Chemotaxis IC50 μM mean ± SEM (n)
endpoint: IC50 (µM)

Example results:
// fetch IC50 given entry COc1cccc(C(=O)CC[N+](C)(C)C)c1
14.6

// fetch IC50 given entry C[N+](C)(C)CCC(=O)c1cccc2ccccc12.[I-]
37

P: COc1ccc(C(=O)CC[N+](C)(C)C)cc1
Q: COc1ccc2cc(C(=O)CC[N+](C)(C)C)ccc2c1
R: COc1ccc2ccccc2c1C(=O)CC[N+](C)(C)C
Arrange the 3 compounds from largest to smallest IC50. # output: labels, in the requested order
Q, R, P

----------
Target: CMKLR1 (Homo sapiens)
Construct: host or cells: CHO-K1 (PathHunter)
Test: β-arrestin recruitment assay (chemerin-mediated β-arrestin2 association with CMKLR1)
Type: cell-based
Conditions: values given in running text b220; read-out: β-arrestin2 assay IC50
endpoint: IC50 (µM)

Example results:
Look up and report IC50, with CMKLR1 (Homo sapiens) as system, for C[N+](C)(C)CCC(=O)c1ccccc1
4.3

Look up and report IC50, with CMKLR1 (Homo sapiens) as system, for C[N+](C)(C)CCC(=O)c1cccc2ccccc12.[I-]
2.3

A: C[N+](C)(C)CCC(=O)c1ccc2ccccc2c1
B: C[N+](C)(C)CCC(=O)C1CCCCC1
I'm curious, which of these has a smaller IC50 number: A or B ? Indicate which entry you chose by stating its label.
A
(A: 3.1 µM, B: 11.9 µM)

----------
Target: CMKLR1 (Homo sapiens, UniProt Q99788)
Construct: host or cells: CHO-K1 (PathHunter)
Experiment: β-arrestin recruitment assay (chemerin-mediated β-arrestin2 association with CMKLR1)
Format: cell-based
Conditions: Table 3, quaternary ammonium salts; chemerin 20 nM; CHO transfectants; read-out: β-arrestin IC50 μM mean ± SEM (n)
endpoint: IC50 (µM)

Example results:
// fetch IC50 given entry C[N+](C)(C)CCC(=O)c1ccc2ccccc2c1 [Compound 23]
2.5

// fetch IC50 given entry COc1ccc(C(=O)CC[N+](C)(C)C)cc1 [Compound 27]
1.9

// fetch IC50 given entry COc1cccc(OC)c1C(=O)CC[N+](C)(C)C.[I-] [Compound 30]
2.1

// fetch IC50 given entry COc1ccccc1C(=O)CC[N+](C)(C)C [Compound 26]
2.9

// fetch IC50 given entry COc1ccc2ccccc2c1C(=O)CC[N+](C)(C)C [Compound 33]
0.6

1: COc1cccc(C(=O)CC[N+](C)(C)C)c1 [Compound 28]
2: COc1ccc2cc(C(=O)CC[N+](C)(C)C)ccc2c1 [Compound 32]
Two entries are listed, 1 and 2 . Which one carries the higher IC50? Indicate which entry you chose by stating its label.
1
(1: 3.8 µM, 2: 1.5 µM)

----------
Molecular target: Cyp2C8 (Homo sapiens, UniProt P10632)
Construct: Human liver microsomes were pre-incubated with 7 concentrations; tissue Cyprotex/Evotec AG; host or cells: human liver microsomes
Sequence (P10632 whole entry): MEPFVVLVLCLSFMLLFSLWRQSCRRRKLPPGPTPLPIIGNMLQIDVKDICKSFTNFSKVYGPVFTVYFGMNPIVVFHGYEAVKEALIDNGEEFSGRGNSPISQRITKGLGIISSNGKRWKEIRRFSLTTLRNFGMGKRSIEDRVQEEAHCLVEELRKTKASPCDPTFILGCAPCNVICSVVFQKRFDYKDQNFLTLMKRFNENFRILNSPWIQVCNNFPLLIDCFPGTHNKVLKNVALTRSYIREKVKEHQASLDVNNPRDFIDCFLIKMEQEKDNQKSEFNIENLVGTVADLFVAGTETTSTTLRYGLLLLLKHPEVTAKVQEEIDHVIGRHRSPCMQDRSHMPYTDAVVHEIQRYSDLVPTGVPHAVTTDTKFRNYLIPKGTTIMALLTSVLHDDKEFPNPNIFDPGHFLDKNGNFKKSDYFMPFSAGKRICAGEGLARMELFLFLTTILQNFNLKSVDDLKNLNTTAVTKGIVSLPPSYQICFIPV
Experiment: Cyp enzyme inhibition, human liver microsomes
Format: in vitro ADME
Settings: 30 min pre-incubation
Description: Cyp enzyme inhibition. Human liver microsomes were pre-incubated with 7 concentrations ([…], duplicate wells) of α-NETA for 30 min.
endpoint: IC50 (µM)
Unit µM implied. Number only.

// fetch IC50 given entry C[N+](C)(C)CCC(=O)c1cccc2ccccc12.[I-]
1.5

----------
Biological target: Cyp2C9 (Homo sapiens)
Construct: Human liver microsomes were pre-incubated with 7 concentrations; tissue Cyprotex/Evotec AG; host or cells: human liver microsomes
Sequence (P11712 whole entry): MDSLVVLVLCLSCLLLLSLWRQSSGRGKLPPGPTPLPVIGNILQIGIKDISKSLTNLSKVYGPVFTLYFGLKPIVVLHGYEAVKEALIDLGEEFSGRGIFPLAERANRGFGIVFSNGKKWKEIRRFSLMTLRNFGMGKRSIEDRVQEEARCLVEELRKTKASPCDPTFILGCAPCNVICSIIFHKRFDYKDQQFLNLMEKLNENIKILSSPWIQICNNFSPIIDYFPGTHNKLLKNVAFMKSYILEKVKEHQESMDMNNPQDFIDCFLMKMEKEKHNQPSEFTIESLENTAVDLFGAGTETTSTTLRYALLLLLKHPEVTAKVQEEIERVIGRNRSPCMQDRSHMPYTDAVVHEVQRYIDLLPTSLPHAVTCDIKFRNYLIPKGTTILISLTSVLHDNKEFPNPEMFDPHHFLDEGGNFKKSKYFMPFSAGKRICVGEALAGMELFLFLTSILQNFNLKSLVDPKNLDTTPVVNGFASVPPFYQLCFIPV
Assay: Cyp enzyme inhibition, human liver microsomes
Assay type: in vitro ADME
Conditions: 30 min pre-incubation
endpoint: IC50 (µM)
Unit µM implied. Number only.

// fetch IC50 given entry C[N+](C)(C)CCC(=O)c1cccc2ccccc12.[I-]
14.6

----------
Target: Cyp2C19 (Homo sapiens, UniProt P33261)
Construct: Human liver microsomes were pre-incubated with 7 concentrations; tissue Cyprotex/Evotec AG; host or cells: human liver microsomes
Sequence (P33261 whole entry): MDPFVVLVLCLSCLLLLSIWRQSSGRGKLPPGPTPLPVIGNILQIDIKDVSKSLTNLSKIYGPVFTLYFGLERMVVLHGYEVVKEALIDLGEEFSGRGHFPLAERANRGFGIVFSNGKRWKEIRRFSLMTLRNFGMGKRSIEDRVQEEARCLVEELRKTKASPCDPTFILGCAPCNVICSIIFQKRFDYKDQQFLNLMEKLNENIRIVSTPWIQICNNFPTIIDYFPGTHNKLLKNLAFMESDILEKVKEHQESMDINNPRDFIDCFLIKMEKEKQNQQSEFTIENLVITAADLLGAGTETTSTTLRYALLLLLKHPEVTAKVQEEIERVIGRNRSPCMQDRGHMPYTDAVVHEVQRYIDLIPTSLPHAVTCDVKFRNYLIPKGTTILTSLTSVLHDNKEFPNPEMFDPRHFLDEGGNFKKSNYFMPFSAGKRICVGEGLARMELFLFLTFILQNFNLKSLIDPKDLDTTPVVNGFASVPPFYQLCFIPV
Test: Cyp enzyme inhibition, human liver microsomes
Assay type: in vitro ADME
Conditions: 30 min pre-incubation
endpoint: IC50 (µM)
Unit µM implied. Number only.

// fetch IC50 given entry C[N+](C)(C)CCC(=O)c1cccc2ccccc12.[I-]
84

----------
Molecular target: CMKLR1 (Homo sapiens)
Construct: host or cells: CHO-K1 (PathHunter)
Sequence (Q99788 1-373): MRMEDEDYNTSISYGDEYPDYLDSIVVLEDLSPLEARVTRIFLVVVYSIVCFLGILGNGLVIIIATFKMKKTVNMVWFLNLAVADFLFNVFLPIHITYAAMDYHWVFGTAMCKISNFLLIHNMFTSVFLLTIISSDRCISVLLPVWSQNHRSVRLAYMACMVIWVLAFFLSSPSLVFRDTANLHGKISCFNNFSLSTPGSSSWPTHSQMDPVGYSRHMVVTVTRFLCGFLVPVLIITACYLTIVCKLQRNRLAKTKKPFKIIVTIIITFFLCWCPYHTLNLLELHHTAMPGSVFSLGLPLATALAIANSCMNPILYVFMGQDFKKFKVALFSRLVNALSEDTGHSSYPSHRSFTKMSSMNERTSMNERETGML
Assay: β-arrestin recruitment assay (chemerin-mediated β-arrestin2 association with CMKLR1)
Type: cell-based
endpoint: activity in β-arrestin2 assay

// fetch activity in β-arrestin2 assay given entry COc1ccc(C(=O)CC[N+](C)(C)C)cc1
highly active

// fetch activity in β-arrestin2 assay given entry COc1cccc(OC)c1C(=O)CC[N+](C)(C)C.[I-]
highly active

// fetch activity in β-arrestin2 assay given entry COc1ccccc1C(=O)CC[N+](C)(C)C
highly active

----------
Molecular target: (hu)CMKLR1 L1.2 cells (Homo sapiens, UniProt Q99788)
Construct: expressed in transfected cells; host or cells: L1.2 pre-B cell lymphoma cells
Assay: Chemotaxis assay (chemerin-dependent CMKLR1+ cell migration)
Format: cell-based
endpoint: activity in chemotaxis assay

// fetch activity in chemotaxis assay given entry COc1ccc(C(=O)CC[N+](C)(C)C)cc1
highly active

// fetch activity in chemotaxis assay given entry COc1ccccc1C(=O)CC[N+](C)(C)C
highly active

// fetch activity in chemotaxis assay given entry COc1cccc(OC)c1C(=O)CC[N+](C)(C)C.[I-]
highly active

----------
Target: CMKLR1 (Homo sapiens, UniProt Q99788)
Construct: host or cells: CHO-K1 (PathHunter)
Sequence (Q99788 1-373): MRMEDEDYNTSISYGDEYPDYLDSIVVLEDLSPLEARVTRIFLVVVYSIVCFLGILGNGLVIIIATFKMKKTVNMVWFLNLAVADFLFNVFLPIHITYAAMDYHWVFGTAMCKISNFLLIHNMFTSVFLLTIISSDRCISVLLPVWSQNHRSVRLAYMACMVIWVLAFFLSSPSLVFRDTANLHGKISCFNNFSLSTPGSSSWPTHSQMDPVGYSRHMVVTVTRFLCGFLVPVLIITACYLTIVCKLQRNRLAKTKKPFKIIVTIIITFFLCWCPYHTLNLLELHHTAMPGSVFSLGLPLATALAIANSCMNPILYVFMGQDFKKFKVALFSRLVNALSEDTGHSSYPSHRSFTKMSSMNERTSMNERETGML
Experiment: β-arrestin recruitment assay (chemerin-mediated β-arrestin2 association with CMKLR1)
Format: cell-based
Conditions: Table 3, quaternary ammonium salts; chemerin 20 nM; CHO transfectants; read-out: β-arrestin IC50 μM mean ± SEM (n)
endpoint: IC50 (µM)

// fetch IC50 given entry COc1ccc(C(=O)CC[N+](C)(C)C)c(OC)c1
4.8

// fetch IC50 given entry COc1cc(OC)cc(C(=O)CC[N+](C)(C)C)c1
6

// fetch IC50 given entry C[N+](C)(C)CCC(=O)c1ccccc1
5.6
